- Experiment Description: Pharmacokinetics after intravenous and oral administration in rats
- Format: in vivo, rat
- Condition Description: rat, plasma, iv dosing, dose 1 mg/kg
Reported Metric: AUC(0-t) (ng·h/mL)

# annotated cases, reported AUC(0-t) shown
CC[C@H](Nc1ncnc(N)c1-c1nnc(C)o1)c1nc2cccc(F)c2c(=O)n1-c1ccccc1 [Ex. 40]    292
CC[C@H](Nc1ncnc(N)c1-c1ccon1)c1nc2cccc(F)c2c(=O)n1C1CC1 [Ex. 48]    254
CCc1noc(-c2c(N)ncnc2N[C@@H](CC)c2nc3cccc(Cl)c3c(=O)n2C2CC2)n1 [Ex. 56]    217
CC[C@H](Nc1ncnc(N)c1-c1ccon1)c1nc2cccc(C)c2c(=O)n1C1CC1 [Ex. 47]    271
CC[C@H](Nc1ncnc(N)c1-c1ncn(C)n1)c1nc2cccc(Cl)c2c(=O)n1-c1ccc(F)cc1 [Ex. 50]    192

1 = CC[C@@H](Nc1ncnc(N)c1-c1ccon1)c1nc2cccc(Cl)c2c(=O)n1C1CC1 [Ex. 49]
2 = CC[C@H](Nc1ncnc(N)c1-c1nc(C)no1)c1nc2cccc(F)c2c(=O)n1-c1ccccc1 [Ex. 39]
## Task So which one has the bigger AUC(0-t) here, 1 or 2 ? // respond with label for picked entry
## Result 2

---

- System: PI3K (p110δ/p85α) (h) (Homo sapiens (Human))
- Sequence (O00329 whole entry): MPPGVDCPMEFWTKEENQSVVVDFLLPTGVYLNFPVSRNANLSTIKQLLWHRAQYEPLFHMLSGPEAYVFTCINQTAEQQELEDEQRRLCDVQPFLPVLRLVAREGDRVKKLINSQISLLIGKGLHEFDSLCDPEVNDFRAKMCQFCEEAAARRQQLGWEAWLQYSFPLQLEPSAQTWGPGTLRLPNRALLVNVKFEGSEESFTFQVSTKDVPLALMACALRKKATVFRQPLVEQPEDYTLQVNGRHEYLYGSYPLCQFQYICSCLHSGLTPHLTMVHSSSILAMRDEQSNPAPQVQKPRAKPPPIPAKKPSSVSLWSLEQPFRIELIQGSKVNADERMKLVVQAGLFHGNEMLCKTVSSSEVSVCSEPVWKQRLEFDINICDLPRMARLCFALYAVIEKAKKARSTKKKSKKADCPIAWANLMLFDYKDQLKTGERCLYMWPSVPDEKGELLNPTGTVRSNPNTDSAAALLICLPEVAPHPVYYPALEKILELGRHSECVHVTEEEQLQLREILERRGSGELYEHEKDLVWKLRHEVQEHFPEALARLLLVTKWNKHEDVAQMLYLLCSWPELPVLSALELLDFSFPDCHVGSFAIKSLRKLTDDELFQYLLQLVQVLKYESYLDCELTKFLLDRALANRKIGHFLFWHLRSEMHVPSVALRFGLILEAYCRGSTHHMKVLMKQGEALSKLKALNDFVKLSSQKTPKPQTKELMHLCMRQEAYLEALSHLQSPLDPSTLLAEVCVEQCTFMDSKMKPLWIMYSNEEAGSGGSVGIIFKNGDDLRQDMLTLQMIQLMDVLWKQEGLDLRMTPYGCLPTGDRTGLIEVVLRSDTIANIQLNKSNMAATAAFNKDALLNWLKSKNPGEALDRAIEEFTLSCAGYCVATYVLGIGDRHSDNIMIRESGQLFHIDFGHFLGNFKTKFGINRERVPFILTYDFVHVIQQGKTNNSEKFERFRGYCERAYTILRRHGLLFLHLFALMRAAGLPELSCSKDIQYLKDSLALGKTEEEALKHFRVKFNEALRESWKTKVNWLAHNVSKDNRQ
- Sequence (P27986 whole entry partner): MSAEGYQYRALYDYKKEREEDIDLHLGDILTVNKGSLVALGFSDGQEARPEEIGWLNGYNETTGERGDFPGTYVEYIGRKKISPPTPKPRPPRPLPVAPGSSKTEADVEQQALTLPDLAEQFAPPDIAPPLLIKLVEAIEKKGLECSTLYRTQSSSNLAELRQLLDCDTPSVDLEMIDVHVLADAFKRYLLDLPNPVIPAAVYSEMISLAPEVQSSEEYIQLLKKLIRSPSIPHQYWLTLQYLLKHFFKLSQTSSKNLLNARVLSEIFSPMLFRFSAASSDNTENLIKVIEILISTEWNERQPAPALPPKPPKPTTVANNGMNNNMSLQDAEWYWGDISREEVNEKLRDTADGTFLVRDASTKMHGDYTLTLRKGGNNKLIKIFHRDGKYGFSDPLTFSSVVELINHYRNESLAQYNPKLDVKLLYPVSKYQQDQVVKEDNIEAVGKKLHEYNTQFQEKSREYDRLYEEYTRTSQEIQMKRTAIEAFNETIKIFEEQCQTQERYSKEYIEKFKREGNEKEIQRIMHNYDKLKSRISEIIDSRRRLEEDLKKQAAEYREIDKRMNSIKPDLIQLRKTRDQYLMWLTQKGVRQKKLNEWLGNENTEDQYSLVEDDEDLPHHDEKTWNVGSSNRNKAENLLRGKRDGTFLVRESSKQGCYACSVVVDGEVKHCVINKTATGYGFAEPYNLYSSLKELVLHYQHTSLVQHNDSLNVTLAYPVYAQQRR
- Experiment Description: PI3K (p110δ/p85α) (h) non-radioactive HTRF kinase assay
Reported Metric: IC50 (nM)

1 = CC[C@H](Nc1ncnc(N)c1-c1nc(C)no1)c1nc2cccc(F)c2c(=O)n1-c1ccccc1 [Ex. 39]
2 = CC[C@H](Nc1ncnc(N)c1-c1nc(C)no1)c1nc2cccc(Cl)c2c(=O)n1[C@@H]1C[C@@H]1F [Ex. 62]
3 = CC[C@H](Nc1ncnc(N)c1-c1ccn(C)n1)c1nc2cccc(Cl)c2c(=O)n1C1CC1 [Ex. 51]
4 = CC[C@H](Nc1ncnc(N)c1-c1nnc(C)o1)c1nc2cccc(C)c2c(=O)n1-c1ccccc1C [Ex. 31]
## Task Ascending by IC50, please. Output the labels ranked as instructed.
## Result 1, 4, 2, 3

A = CCc1noc(-c2c(N)ncnc2N[C@@H](CC)c2nc3cccc(Cl)c3c(=O)n2C2CC2)n1 [Ex. 56]
B = CC[C@H](Nc1ncnc(N)c1-c1ncn(C)n1)c1nc2cccc(F)c2c(=O)n1C1CC1 [Ex. 26]
C = CC[C@H](Nc1ncnc(N)c1-c1nnc(C)o1)c1nc2cccc(C)c2c(=O)n1C1CC1 [Ex. 20]
D = CC[C@H](Nc1ncnc(N)c1-c1nnc(C)o1)c1nc2cccc(Cl)c2c(=O)n1C1CC1 [Ex. 2]
## Task Please order the records by their reported IC50, lowest number first. Output the labels ranked as instructed.
## Result A, D, C, B

---

- Experiment Description: Compound stability in rat liver microsomes
- Type: in vitro ADME
- Condition Description: pH 7.4; rat liver microsomes 0.5 mg protein/mL, compound 5 μM, NADPH 1.0 mM, 37° C.
Reported Metric: half-life at 5 μM (min)

A = CC[C@H](Nc1ncnc(N)c1-c1nnc(C)o1)c1nc2cccc(Cl)c2c(=O)n1-c1ccccc1C [Ex. 35]
B = Cc1nnc(-c2c(N)ncnc2N[C@@H](C)c2nc3cccc(Cl)c3c(=O)n2-c2ccccc2)o1 [Ex. 64]
## Task Compare reported half-life at 5 μM values for A and B . Which is lower? // respond with label for picked entry
## Result A
(A: 8.87 min, B: 49.6 min)

---

- Experiment Description: Pharmacokinetics after intravenous and oral administration in rats
- Format: in vivo, rat
- Condition Description: iv dosing, dose 1 mg/kg
Reported Metric: clearance (CL) (mL/min/kg)

CC[C@H](Nc1ncnc(N)c1-c1ncn(C)n1)c1nc2cccc(C)c2c(=O)n1-c1ccccc1C [Ex. 30]    70.5
CC[C@H](Nc1ncnc(N)c1-c1ncc(C)o1)c1nc2cccc(C)c2c(=O)n1-c1ccccc1C [Ex. 28]    61.2
CC[C@H](Nc1ncnc(N)c1-c1nc(C)no1)c1nc2cccc(C)c2c(=O)n1-c1ccccc1C [Ex. 27]    61.7

A = CC[C@H](Nc1ncnc(N)c1-c1nnc(C)o1)c1nc2cccc(F)c2c(=O)n1-c1ccccc1 [Ex. 40]
B = CC[C@H](Nc1ncnc(N)c1-c1nnn(C)n1)c1nc2cccc(F)c2c(=O)n1-c1ccccc1 [Ex. 43]
C = CC[C@@H](Nc1ncnc(N)c1-c1nc(C)no1)c1nc2cccc(Cl)c2c(=O)n1C1CC1 [Ex. 19]
## Task Thanks in advance: please rank these 3 entries by clearance (CL), highest to lowest. Output the labels ranked as instructed.
## Result C, A, B

---

- Experiment Description: Pharmacokinetics after intravenous and oral administration in rats
- Type: in vivo, rat
- Condition Description: rat, plasma, iv dosing, dose 1 mg/kg
Reported Metric: AUC(0-t) (ng·h/mL)

CC[C@H](Nc1ncnc(N)c1-c1ncn(C)n1)c1nc2cccc(C)c2c(=O)n1C1CC1 [Ex. 18]    307

A = CC[C@H](Nc1ncnc(N)c1-c1ncn(C)n1)c1nc2cccc(Cl)c2c(=O)n1-c1ccccc1 [Ex. 32]
B = CC[C@H](Nc1ncnc(N)c1-c1noc(C)n1)c1nc2cccc(Cl)c2c(=O)n1-c1ccccc1 [Ex. 13]
C = CC[C@H](Nc1ncnc(N)c1-c1nc(C)no1)c1nc2cccc(Cl)c2c(=O)n1C1CC1 [Ex. 4]
## Task Please order the records by their reported AUC(0-t), lowest number first. Output the labels ranked as instructed.
## Result B, A, C

---

- Experiment Description: Pharmacokinetics after intravenous and oral administration in rats
- Assay type: in vivo, rat
- Condition Description: rat, plasma, iv dosing, dose 1 mg/kg, read-out: Vss
Reported Metric: Vd (L/kg)

# annotated cases, reported Vd shown
CC[C@H](Nc1ncnc(N)c1-c1ncn(C)n1)c1nc2cccc(Cl)c2c(=O)n1C1CC1 [Ex. 53]    3.88
CC[C@H](Nc1ncnc(N)c1-c1nnc(C)o1)c1nc2cccc(F)c2c(=O)n1-c1ccccc1 [Ex. 40]    2.99
CC[C@H](Nc1ncnc(N)c1-c1ccon1)c1nc2cccc(C)c2c(=O)n1C1CC1 [Ex. 47]    3.16
Cc1noc(-c2c(N)ncnc2N[C@@H](C)c2nc3cccc(Cl)c3c(=O)n2-c2ccccc2)n1 [Ex. 65]    9.09

I = CC[C@H](Nc1ncnc(N)c1-c1ncn(C)n1)c1nc2cccc(F)c2c(=O)n1C1CC1 [Ex. 26]
II = CC[C@H](Nc1ncnc(N)c1-c1ncc(C)o1)c1nc2cccc(Cl)c2c(=O)n1C1CC1 [Ex. 7]
## Task Compare reported Vd values for I and II . Which is lower? // respond with label for picked entry
## Result I
(I: 2.5 L/kg, II: 5.82 L/kg)

---

IC50 overview
- System: PI3K (p110β/p85α) (h) (Homo sapiens (Human))
- Sequence (P42338 whole entry, one chain of several): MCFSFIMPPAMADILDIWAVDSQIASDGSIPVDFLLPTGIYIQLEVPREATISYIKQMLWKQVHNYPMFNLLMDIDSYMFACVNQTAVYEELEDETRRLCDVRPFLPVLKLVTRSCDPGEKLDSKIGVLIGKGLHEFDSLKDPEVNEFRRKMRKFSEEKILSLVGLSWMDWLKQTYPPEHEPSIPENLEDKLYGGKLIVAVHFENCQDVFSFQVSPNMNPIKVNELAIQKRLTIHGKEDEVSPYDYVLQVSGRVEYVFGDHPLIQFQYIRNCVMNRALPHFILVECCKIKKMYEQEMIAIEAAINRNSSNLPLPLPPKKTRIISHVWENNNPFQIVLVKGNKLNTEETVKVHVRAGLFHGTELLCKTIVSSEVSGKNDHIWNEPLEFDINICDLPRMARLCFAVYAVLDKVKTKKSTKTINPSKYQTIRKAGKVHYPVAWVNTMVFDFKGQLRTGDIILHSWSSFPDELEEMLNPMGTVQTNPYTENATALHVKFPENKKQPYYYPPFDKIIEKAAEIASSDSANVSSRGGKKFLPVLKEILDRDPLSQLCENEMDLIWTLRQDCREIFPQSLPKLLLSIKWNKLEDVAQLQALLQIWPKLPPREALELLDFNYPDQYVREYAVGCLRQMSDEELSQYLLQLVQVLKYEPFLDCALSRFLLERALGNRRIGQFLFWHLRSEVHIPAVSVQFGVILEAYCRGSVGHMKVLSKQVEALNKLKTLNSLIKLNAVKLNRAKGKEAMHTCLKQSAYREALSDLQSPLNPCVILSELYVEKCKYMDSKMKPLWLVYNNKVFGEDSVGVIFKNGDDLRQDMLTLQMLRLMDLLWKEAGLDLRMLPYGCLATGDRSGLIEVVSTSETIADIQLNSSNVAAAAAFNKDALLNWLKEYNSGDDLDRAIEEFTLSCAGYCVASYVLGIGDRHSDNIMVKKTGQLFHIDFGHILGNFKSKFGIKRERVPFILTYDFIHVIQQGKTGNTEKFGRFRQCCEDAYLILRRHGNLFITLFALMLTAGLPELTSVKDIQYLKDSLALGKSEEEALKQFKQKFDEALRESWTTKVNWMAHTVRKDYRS
- Experiment Description: PI3K (p110β/p85α) (h) non-radioactive HTRF kinase assay

CC[C@H](Nc1ncnc(N)c1-c1nc(C)no1)c1nc2cccc(Cl)c2c(=O)n1C1CC1 [Ex. 4]    113 nM
CC[C@H](Nc1ncnc(N)c1-c1ccccn1)c1nc2cccc(Cl)c2c(=O)n1C1CC1 [Ex. 11]    > 3000 nM
CC[C@H](Nc1ncnc(N)c1-c1ncnn1C)c1nc2cccc(Cl)c2c(=O)n1-c1ccccc1 [Ex. 10]    > 3000 nM

As a next step, examine the compound that follows.
Form: compound = CC[C@H](Nc1ncnc(N)c1C1=N[C@@H](C)CO1)c1nc2cccc(Cl)c2c(=O)n1-c1ccccc1 [Ex. 6] ; IC50 = > 3000 nM

---

- Experiment Description: Pharmacokinetics after intravenous and oral administration in rats
- Assay type: in vivo, rat
- Condition Description: iv dosing, dose 1 mg/kg
Reported Metric: clearance (CL) (mL/min/kg)

CC[C@H](Nc1ncnc(N)c1-c1nc(C)no1)c1nc2cccc(F)c2c(=O)n1C1CC1    71.3
Cc1noc(-c2c(N)ncnc2N[C@@H](C)c2nc3cccc(Cl)c3c(=O)n2C2CC2)n1    84.3
CC[C@H](Nc1ncnc(N)c1-c1nc(C)no1)c1nc2cccc(C)c2c(=O)n1-c1ccccc1    67.5
C[C@H](Nc1ncnc(N)c1-c1ncn(C)n1)c1nc2cccc(Cl)c2c(=O)n1C1CC1    73.7

---

- Experiment Description: Pharmacokinetics after intravenous and oral administration in rats
- Assay type: in vivo, rat
- Condition Description: rat, plasma, iv dosing, dose 1 mg/kg
Reported Metric: half-life (h)

CC[C@@H](Nc1ncnc(N)c1-c1nc(C)no1)c1nc2cccc(Cl)c2c(=O)n1C1CC1 [Ex. 19]    0.86

a = CC[C@H](Nc1ncnc(N)c1-c1nc(C)co1)c1nc2cccc(C)c2c(=O)n1-c1ccccc1C [Ex. 29]
b = CC[C@H](Nc1ncnc(N)c1-c1ncn(C)n1)c1nc2cccc(Cl)c2c(=O)n1-c1ccc(F)cc1 [Ex. 50]
## Task So which one has the bigger half-life here, a or b ? // respond with label for picked entry
## Result a
(a: 2.03 h, b: 1.14 h)

I = Cc1noc(-c2c(N)ncnc2N[C@@H](C)c2nc3cccc(Cl)c3c(=O)n2-c2ccccc2)n1 [Ex. 65]
II = CC[C@H](Nc1ncnc(N)c1-c1ncc(C)o1)c1nc2cccc(Cl)c2c(=O)n1C1CC1 [Ex. 7]
## Task Compare reported half-life values for I and II . Which is lower? // respond with label for picked entry
## Result I
(I: 0.904 h, II: 1.33 h)

A = CC[C@H](Nc1ncnc(N)c1-c1nc(C)co1)c1nc2cccc(Cl)c2c(=O)n1C1CC1 [Ex. 52]
B = CC[C@@H](Nc1ncnc(N)c1-c1ccon1)c1nc2cccc(Cl)c2c(=O)n1C1CC1 [Ex. 49]
## Task So which one has the bigger half-life here, A or B ? // respond with label for picked entry
## Result A
(A: 1.22 h, B: 0.66 h)
